Assay: Solubility in aqueous medium (buffer pH 5)
Type: physicochemical
Details: acetic acid/KOH buffer pH 5, stirred 24 h at room temperature, HPLC/UV of supernatant
Kindly supply the reported Soiubility (pH 5) in mg/ml values for the records listed here.
Numeric answer only, unit mg/ml assumed.

Record request: Soiubility (pH 5) in mg/ml value, item Cl.Oc1ccc(Cl)c(-c2ccn3nc(Nc4ccc(OCCN5CCCC5)cc4)nc3c2)c1 [compound 10]
2

Returns the measured Soiubility (pH 5) in mg/ml for the input compound. Input: Oc1ccc(Cl)c(-c2ccc3nc(Nc4cccc(OCCN5CCOCC5)c4)nn3c2)c1 [compound 12]
0.2

Which Soiubility (pH 5) in mg/ml value is on record for Oc1ccc(Cl)c(-c2ccc3nc(Nc4cccc(OCCN5CCCC5)c4)nn3c2)c1 [compound 16] ?
0.1

Field request: Soiubility (pH 5) in mg/ml | item: CN(C)[C@@H]1CCN(C(=O)COc2ccc(Nc3nc4ccc(-c5cc(O)ccc5Cl)cn4n3)cc2)C1.Cl [compound 6]
0.9

----------
I'd be grateful if you could share measured Soiubility (pH 5) in mg/ml for these entries.
Experiment: Solubility in aqueous medium (buffer pH 5)
Assay type: physicochemical
Conditions: acetic acid/KOH buffer pH 5, stirred 24 h at room temperature, HPLC/UV of supernatant
Kindly answer with a numeric value in mg/ml, unit omitted.

Requested field: Soiubility (pH 5) in mg/ml. Item: CN(C)CCOc1cccc(Nc2nc3ccc(-c4cc(O)ccc4Cl)cn3n2)c1 [compound 15]
0.7

Given the compound Cl.Oc1ccc(Cl)c(-c2ccc3nc(Nc4ccc(OCCN5CCCC5)cc4)nn3c2)c1 [compound 5] , what is its reported Soiubility (pH 5) in mg/ml?
5.4

Looking for the measured Soiubility (pH 5) in mg/ml of O=C1N(CCN2CCCC2)CCN1c1ccc(Nc2nc3ccc(-c4cc(O)ccc4Cl)cn3n2)cc1 [compound 7] , can you help?
0.22

Requested read-out: Soiubility (pH 5) in mg/ml. Entry: Cc1cc(-c2cc(O)ccc2Cl)cn2nc(Nc3ccc(OCCN4CCCC4)cc3)nc12.Cl [compound 9]
1

----------
Assay: Solubility in aqueous medium (buffer pH 5)
Format: physicochemical
Details: acetic acid/KOH buffer pH 5, stirred 24 h at room temperature, HPLC/UV of supernatant
Kindly state Solubility (pH 5) in % for each of the entries shown.
Express the result in % but write the number alone.

For the compound Oc1ccc(Cl)c(-c2ccc3nc(Nc4cccc(OCCN5CCCC5)c4)nn3c2)c1 , what Solubility (pH 5) in % is on record?
0.01

For Oc1ccc(Cl)c(-c2ccc3nc(Nc4cccc(OCCN5CCOCC5)c4)nn3c2)c1 , what is its reported Solubility (pH 5) in %?
0.02

Which Solubility (pH 5) in % value belongs to Cl.Oc1ccc(Cl)c(-c2ccc3nc(Nc4ccc(OCCN5CCCC5)cc4)nn3c2)c1 ?
0.3

What value of Solubility (pH 5) in % has been reported for the following compound? Cl.Oc1ccc(Cl)c(-c2ccn3nc(Nc4ccc(OCCN5CCCC5)cc4)nc3c2)c1
0.2

Could you share which Solubility (pH 5) in % value was measured for O=C1N(CCN2CCCC2)CCN1c1ccc(Nc2nc3ccc(-c4cc(O)ccc4Cl)cn3n2)cc1 ?
0.022

Query (compound): Cc1cc(-c2cc(O)ccc2Cl)cn2nc(Nc3ccc(OCCN4CCCC4)cc3)nc12.Cl ; field requested: Solubility (pH 5) in %
0.1

Entry CN(C)CCOc1cccc(Nc2nc3ccc(-c4cc(O)ccc4Cl)cn3n2)c1 : reported Solubility (pH 5) in % = ?
0.07

Tell me the measured Solubility (pH 5) in % of CN(C)[C@@H]1CCN(C(=O)COc2ccc(Nc3nc4ccc(-c5cc(O)ccc5Cl)cn4n3)cc2)C1.Cl , please.
0.1
